Give IC50 for every item shown.
Assayed System: Large T antigen (Simian virus 40);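 further: Confirmatory-stage PubChem screen for compounds that inhibit SV40 T antigen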
Sequence (P03070 whole entry): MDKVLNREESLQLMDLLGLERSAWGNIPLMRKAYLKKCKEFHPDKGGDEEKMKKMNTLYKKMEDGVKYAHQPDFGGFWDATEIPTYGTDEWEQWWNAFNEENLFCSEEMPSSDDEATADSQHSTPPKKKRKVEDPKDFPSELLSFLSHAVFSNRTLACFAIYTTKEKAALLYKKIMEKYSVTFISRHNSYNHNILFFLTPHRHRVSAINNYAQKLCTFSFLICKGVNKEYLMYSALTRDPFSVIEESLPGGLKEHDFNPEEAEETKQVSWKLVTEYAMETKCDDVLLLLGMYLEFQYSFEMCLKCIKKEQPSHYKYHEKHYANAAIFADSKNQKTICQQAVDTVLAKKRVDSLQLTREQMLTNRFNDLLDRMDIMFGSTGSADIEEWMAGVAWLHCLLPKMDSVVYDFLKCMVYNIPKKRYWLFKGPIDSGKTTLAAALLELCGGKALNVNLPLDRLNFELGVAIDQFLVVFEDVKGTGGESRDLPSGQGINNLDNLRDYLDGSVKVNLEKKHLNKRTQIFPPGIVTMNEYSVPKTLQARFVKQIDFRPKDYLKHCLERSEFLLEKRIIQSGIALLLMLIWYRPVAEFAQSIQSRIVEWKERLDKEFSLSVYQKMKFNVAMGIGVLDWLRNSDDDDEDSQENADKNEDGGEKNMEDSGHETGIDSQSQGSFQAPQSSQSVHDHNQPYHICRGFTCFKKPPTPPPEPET
Format: functional, Betapolyomavirus macacae
The source made the active and inactive calls.

## Input What value of IC50 has been reported for the following molecule? COc1ccc(NC(=O)c2sc(S)nc2N)cc1
## Output 7.51 µM (active)

## Input Item under review: Oc1ccc2c(c1)oc1cc(O)ccc12 . Reported IC50?
## Output 3.5 µM (active)

## Input What measured IC50 goes with CCN(CC)c1ccc(NC(=O)COC(=O)c2cccs2)cc1 ?
## Output 15.2 µM (active)

## Input Field request: IC50 | item: Cc1ccc2c(c1)NC(=O)c1cccnc1N2
## Output 10.2 µM (active)

## Input Report IC50 for Cc1ccc2c(c1C)NC(C(=O)O)C1CC=CC21 (configuration not stated) please.
## Output 91.4 µM (active)

## Input Recorded IC50 for O=C1N=C(Nc2ccc(O)cc2)S/C1=C/c1ccco1 , please?
## Output 3.47 µM (active)

## Input Entry under review: O=C(CSc1nc(O)c2ccccc2n1)c1ccc(O)c(O)c1 . Reported IC50?
## Output 10.7 µM (active)
